Test: Michaelis-Menten constant for the cyclization of the lipopeptide SNAC by the licC thioesterase
Please go through the items and note down their Km.
The answer is to be given in µM; state only the numeric part.

Lookup: Give Km for CC[C@H](C)[C@H](NC(=O)[C@@H](CC(C)C)NC(=O)[C@H](CC(=O)O)NC(=O)[C@H](C)NC(=O)[C@@H](CC(C)C)NC(=O)[C@H](CC(C)C)NC(=O)[C@H](CCC(N)=O)NC(=O)C[C@@H](C)O)C(=O)SCCNC(C)=O
Found: 9.35

Lookup: For the compound CC[C@H](C)[C@H](NC(=O)[C@@H](C)NC(=O)[C@H](CC(=O)O)NC(=O)[C@@H](NC(=O)[C@@H](CC(C)C)NC(=O)[C@H](CC(C)C)NC(=O)[C@H](CCC(N)=O)NC(=O)C[C@@H](C)O)C(C)C)C(=O)SCCNC(C)=O , give its measured Km value.
Found: 257

Lookup: In one line, give reported Km of the entry CC[C@H](C)[C@H](NC(=O)[C@@H](CC(C)C)NC(=O)[C@H](CC(=O)O)NC(=O)[C@@H](NC(=O)[C@@H](CC(C)C)NC(=O)[C@H](CC(C)C)NC(=O)[C@H](CCC(N)=O)NC(=O)C[C@@H](C)O)C(C)C)C(=O)SCCNC(C)=O .
Found: 6.83

Lookup: Hello, please tell me recorded Km for this one: CC[C@H](C)[C@H](NC(=O)[C@@H](CC(C)C)NC(=O)[C@H](CC(=O)O)NC(=O)[C@@H](NC(=O)[C@@H](CC(C)C)NC(=O)[C@H](CC(C)C)NC(=O)[C@H](C)NC(=O)C[C@@H](C)O)C(C)C)C(=O)SCCNC(C)=O
Found: 29.9

---

Assay: Michaelis-Menten constant for the cyclization of the lipopeptide SNAC by the licC thioesterase
Could you please report measured Km for the items listed next?
# number only, unit µM dropped from output

Lookup: Read off the recorded Km for CC[C@H](C)[C@H](NC(=O)[C@@H](CC(C)C)NC(=O)[C@H](CC(=O)O)NC(=O)[C@@H](NC(=O)[C@@H](CC(C)C)NC(=O)[C@H](C)NC(=O)[C@H](CCC(N)=O)NC(=O)C[C@@H](C)O)C(C)C)C(=O)SCCNC(C)=O
Found: 15.2

Lookup: Supply recorded Km for CC[C@H](C)[C@H](NC(=O)[C@@H](CC(C)C)NC(=O)[C@H](CC(=O)O)NC(=O)[C@@H](NC(=O)[C@@H](C)NC(=O)[C@H](CC(C)C)NC(=O)[C@H](CCC(N)=O)NC(=O)C[C@@H](C)O)C(C)C)C(=O)SCCNC(C)=O here.
Found: 5.1

---

For each entry below, report its Km value.
Experiment: Michaelis-Menten constant for the hydrolysis of the lipopeptide SNAC by the licC thioesterase
Write the answer as a number in µM, unit excluded.

Lookup: Tell me measured Km for CC[C@H](C)[C@H](NC(=O)[C@@H](CC(C)C)NC(=O)[C@H](CC(=O)O)NC(=O)[C@H](C)NC(=O)[C@@H](CC(C)C)NC(=O)[C@H](CC(C)C)NC(=O)[C@H](CCC(N)=O)NC(=O)C[C@@H](C)O)C(=O)SCCNC(C)=O please.
Found: 8.05

Lookup: Report measured Km; entry is CC[C@H](C)[C@H](NC(=O)[C@@H](C)NC(=O)[C@H](CC(=O)O)NC(=O)[C@@H](NC(=O)[C@@H](CC(C)C)NC(=O)[C@H](CC(C)C)NC(=O)[C@H](CCC(N)=O)NC(=O)C[C@@H](C)O)C(C)C)C(=O)SCCNC(C)=O
Found: 263

Lookup: In one line, give reported Km of the entry CC[C@H](C)[C@H](NC(=O)[C@@H](CC(C)C)NC(=O)[C@H](CC(=O)O)NC(=O)[C@@H](NC(=O)[C@@H](CC(C)C)NC(=O)[C@H](C)NC(=O)[C@H](CCC(N)=O)NC(=O)C[C@@H](C)O)C(C)C)C(=O)SCCNC(C)=O .
Found: 16.9

Lookup: Give recorded Km. CC[C@H](C)[C@H](NC(=O)[C@@H](CC(C)C)NC(=O)[C@H](CC(=O)O)NC(=O)[C@@H](NC(=O)[C@@H](CC(C)C)NC(=O)[C@H](CC(C)C)NC(=O)[C@H](C)NC(=O)C[C@@H](C)O)C(C)C)C(=O)SCCNC(C)=O
Found: 29

---

Experiment: Michaelis-Menten constant for the hydrolysis of the lipopeptide SNAC by the licC thioesterase
Exercise: for every item that follows, state its recorded log10 Km.
Values below are the log10 of the recorded Km, with µM as the unit.

Lookup: Consider the compound CC[C@H](C)[C@H](NC(=O)[C@@H](CC(C)C)NC(=O)[C@H](CC(=O)O)NC(=O)[C@@H](NC(=O)[C@@H](C)NC(=O)[C@H](CC(C)C)NC(=O)[C@H](CCC(N)=O)NC(=O)C[C@@H](C)O)C(C)C)C(=O)SCCNC(C)=O . State its measured log10 Km.
Found: 0.69

Lookup: Fill in log10 Km for record CC(=O)NCCSC(=O)[C@H](C)NC(=O)[C@@H](CC(C)C)NC(=O)[C@H](CC(=O)O)NC(=O)[C@@H](NC(=O)[C@@H](CC(C)C)NC(=O)[C@H](CC(C)C)NC(=O)[C@H](CCC(N)=O)NC(=O)C[C@@H](C)O)C(C)C
Found: 2.28

Lookup: Give reported log10 Km value for CC[C@H](C)[C@H](NC(=O)[C@@H](CC(C)C)NC(=O)[C@H](C)NC(=O)[C@@H](NC(=O)[C@@H](CC(C)C)NC(=O)[C@H](CC(C)C)NC(=O)[C@H](CCC(N)=O)NC(=O)C[C@@H](C)O)C(C)C)C(=O)SCCNC(C)=O
Found: 0.91

Lookup: Tell me log10 Km reported for CC[C@H](C)[C@H](NC(=O)[C@@H](CC(C)C)NC(=O)[C@H](CC(=O)O)NC(=O)[C@@H](NC(=O)[C@@H](CC(C)C)NC(=O)[C@H](CC(C)C)NC(=O)[C@H](CCC(N)=O)NC(=O)CCN)C(C)C)C(=O)SCCNC(C)=O
Found: 0.97

Lookup: Using the record for CC[C@H](C)[C@H](NC(=O)[C@@H](CC(C)C)NC(=O)[C@H](CC(=O)O)NC(=O)[C@@H](NC(=O)[C@@H](CC(C)C)NC(=O)[C@H](CC(C)C)NC(=O)[C@H](CCC(N)=O)NC(=O)C[C@@H](C)O)C(C)C)C(=O)SCCNC(C)=O , state its measured log10 Km.
Found: 0.91

Lookup: Return the recorded log10 Km value; entry: CC[C@H](C)[C@H](NC(=O)[C@@H](CC(C)C)NC(=O)[C@H](CC(=O)O)NC(=O)[C@@H](NC(=O)[C@@H](CC(C)C)NC(=O)[C@H](CC(C)C)NC(=O)[C@H](CCC(N)=O)NC(=O)C[C@H](C)O)C(C)C)C(=O)SCCNC(C)=O
Found: 1.08
